# Subject Of Test: HLA-DR1 (DRB1*0101), purified HLA class II molecule (human)
# Experimental Details: competition with 125I-labelled probe peptide, purified HLA-DR
Observed Property: relative binding ratio

>  <Binder>
QPDVRPQPPSPREGP (also called Her2/neu.1142) [HER2/neu DR supermotif exemplary 15-mer QPDVRPQPPSPREGP (position 1142)]

>  <Observed Property>
relative binding ratio

>  <Result>
0.0007 ratio (IC50 standard / IC50 test)

$$$$

Record request: relative binding ratio value, item TQLFEDNYALAVLDN (also called Her2/neu.105) [HER2/neu DR supermotif exemplary 15-mer TQLFEDNYALAVLDN (position 105)]
0.053 ratio (IC50 standard / IC50 test)

// provenance: patent US20040018971A1
